Source: the supplement of paper PMC10567573

Experiment: protein stability index of a GFP-peptide fusion (GPS, HEK-293T) (PSI 1-6); higher = more stable;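 note: 24-mer peptide tiles fused after GFP, lentivirally expressed, FACS-sorted into six equal bins by GFP/DsRed ratio, decoded by Illumina sequencing, PSI is the read-weighted mean bin number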
Conditions: treatment: MLN4924 1 uM, 8 h; c terminus: a fixed tail appended
Catalogue of protein stability index readings, one per entry.

Worked cases, protein stability index given:
- LNSVERYDPKTNQWSSDVAPTSTC [KLHL20]: 4.24
- DLLHNVSQNIAAETRAEDPPWFEG [DFFB]: 3.85
- LAEAKYYLVQGLVEECQAALQNKD [KCTD10]: 3.38
- LEIVGREGVSLTAVLTTHHHWDHA [HAGHL]: 2.32
- SRKPSLKGNREDSARMSAGLPGPE [PLEKHN1]: 4.87
- KIQLRLAGQKRKHSEGRVEVYYDG [LOXL2]: 3.88
- VSASRDKTLRVWDLKDDGNMMKVL [WSB1]: 3.35
- LEDFFVMSDYRGFGIGSEILKNLS [SAT1]: 2.28
- QFRLKEAFDYIKQRRSMVSPNFGF [DUSP5]: 2.22
- MMYSAELWRYRTITFSGRPSRVHA [FBXO39]: 2.46

# get_value(readout='protein stability index', item= RVVHWYFKLLDKNSSGDIGKKEIK [SMOC2] )
2.41

Report protein stability index for HKPLLICSCEWMAAMFGGSFVESA [RHOBTB1] please.
2.46

# query: protein stability index of entry ALLQAMKDLDGMDADILGLKKSNS [FBF1]
2.82

Endpoint output: protein stability index of DIKNPEITTNRFYGPQVNNISHTK [WASL] . Value?
3.48

# lookup: protein stability index of KLEKSIDSYYRLVIHRALDREQVS [PCDHGA10]
2.48

Form field: reported protein stability index of APPAKLACPVCSKMVPRYDLNRHL [FAN1]
2.95

What does the data say about its protein stability index? Entry: TVMMWPLAVYHRLWDRAYVRLKPA [RETREG3]
2.27

Tell me the measured protein stability index of RRLLVKDPKRRMTIAQSLEHSWIK [DAPK3] , please.
2.82

Record request: protein stability index value, item TVLLVLEDEDPEEMPKSSDFLIHP [PCDHGC5]
2.91

# get_value(readout='protein stability index', item= EEDNELNLPNLAAAYSSILSSLGE [GCH1] )
3.73

Return reported protein stability index; argument: KELRDGGEQDTWAGEGAEALARNL [NFE2L1]
5.36

Name the reported protein stability index value associated with the sequence VSLLENNIYVHDLLTFQQITTVSK [VPS39]
2.41

Sample AARAAGRDVAAEAVARSPKRPAWG [POMT2] — what was its protein stability index?
4.29
